# measurement_protocol: Determination of water solubility in phosphate buffer
# Assay type: physicochemical
# condition_notes: aqueous buffer, thermodynamic from solid; phosphate buffer pH 7.4, room temperature, 24 hours
# From the text: Experimental instruments: 96-well filter plate (MSHVN4510 or MSHVN4550, Millipore); electronic digital display vortex mixer (MS3 Digital, IKA); multi-purpose vacuum pump (circulating water type, SHB-111, Zhengzhou Greatwall Scientific Industrial and Trade Co., Ltd.); balance (XSLT05, Mettler-Toledo); comfortable mixer (Eppendorf AG 22331 Hamburg, Eppendorf); liquid chromatography (LC-3AD, Shimadzu); mass spectrometry (API4000, Applied Biosystems, USA); sample injector (Anylytics AG System, CTC). […]
recorded_endpoint: solubility at 24 h

Query: Quick one: solubility at 24 h for CN(CC(=O)OCc1cccnc1N(C)C(=O)OCOc1ccc([N+](=O)[O-])c2cccnc12)C(=O)C(C)(C)C [Compound 66] ?
Result: 540 µg/mL

Query: Quick one: solubility at 24 h for CC(C)C(=O)N1CCC[C@H]1C(=O)OCOc1ccc([N+](=O)[O-])c2cccnc12 [Compound 20] ?
Result: 978 µg/mL

Query: Quick one: solubility at 24 h for CC(C)(C)C(=O)N1CCC[C@@H]1C(=O)OCOc1ccc([N+](=O)[O-])c2cccnc12 [Compound 24] ?
Result: 73.6 µg/mL

Query: Quick one: solubility at 24 h for COC(=O)CCCCC(=O)OCOc1ccc([N+](=O)[O-])c2cccnc12 [Compound 11] ?
Result: 66.9 µg/mL
